target: serotonin transporter (Rattus norvegicus); construct: frontal cortical membranes prepared from male Sprague-Dawley rats; from tissue; host or cells: frontal cortex membranes, male Sprague-Dawley rats; assay: affinity for the serotonin transporter ([3H]-paroxetine binding, rat frontal cortical membranes); design: species or system rat (male Sprague-Dawley); conditions: read-out: ST (Ki); [3H]-paroxetine 0.1 nM, 60 min, 25° C; Ki converted from IC50 (Cheng and Prusoff)
Sequence (P31652 whole entry): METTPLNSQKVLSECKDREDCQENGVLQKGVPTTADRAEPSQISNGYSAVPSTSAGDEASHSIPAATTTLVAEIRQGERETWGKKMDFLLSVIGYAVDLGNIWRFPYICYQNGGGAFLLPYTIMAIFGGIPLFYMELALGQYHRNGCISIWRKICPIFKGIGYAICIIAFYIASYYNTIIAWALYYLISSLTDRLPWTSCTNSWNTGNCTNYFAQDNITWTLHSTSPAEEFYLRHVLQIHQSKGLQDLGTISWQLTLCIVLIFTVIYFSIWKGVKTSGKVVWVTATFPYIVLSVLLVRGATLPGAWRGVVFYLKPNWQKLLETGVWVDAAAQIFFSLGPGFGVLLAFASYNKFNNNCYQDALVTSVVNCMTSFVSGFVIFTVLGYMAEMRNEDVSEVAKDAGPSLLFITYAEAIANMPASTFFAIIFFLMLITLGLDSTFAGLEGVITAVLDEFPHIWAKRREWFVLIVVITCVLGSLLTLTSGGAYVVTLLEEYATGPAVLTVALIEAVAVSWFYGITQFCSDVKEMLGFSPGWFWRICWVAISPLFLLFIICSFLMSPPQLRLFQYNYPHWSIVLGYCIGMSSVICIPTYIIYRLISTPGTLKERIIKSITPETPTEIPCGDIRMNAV
measure: Ki (µM)
Form entry: value (µM) — number only.

# lookup: Ki of COc1ccccc1OC(C)CNCCCc1c[nH]c2ccc(F)cc12 (stereo not shown) [Example 17]
0.016

###

target: serotonin transporter (Rattus norvegicus); construct: frontal cortical membranes prepared from male Sprague-Dawley rats; from tissue; host or cells: frontal cortex membranes, male Sprague-Dawley rats; experiment: affinity for the serotonin transporter ([3H]-paroxetine binding, rat frontal cortical membranes); set-up: species or system rat (male Sprague-Dawley)
Kindly state Ki for each of the entries shown.
Report only the number, with the unit nM understood.

Give the measured Ki of Fc1ccc2[nH]cc(CCCNCCOc3ccc4c(c3)CCC4)c2c1 .
56

I'd like to know its Ki. The compound in question is c1cc(OCCNCCc2c[nH]c3ccccc23)c2c(c1)OCCO2
12
